Test system: Plasmodium berghei
Test: Luciferase/luciferin-expressing antifolate-resistant parasites were used to infect a culture of HepG2 cells that were pre-incubated with compounds. Infected hepatocytes emit light due to the luciferase reaction. Assay results are presented as the percent inhibition of light emission compared to control. […]
Format: functional
Settings: sporozoite, HEPG2TOX_HILL_SLOPE 1.22, HEPG2TOX_R_SQUARED 0.959, PBLUC_HILL_SLOPE 2.24, PBLUC_R_SQUARED 0.732, read-out: LUCIFERASE INFECTION ASSAY - IC50

# MOLECULE, TEST_SYSTEM, IC50
records = [
    ("CC(Nc1ncnc2ccsc12)c1nc2ccccc2n1C(F)F (stereo unspecified)", "Plasmodium berghei", "2.97 µM"),
]
